Where do these numbers come from? They come from PubChem BioAssay (EPA / NIEHS).

biological target: human Retinoic Acid Receptor gamma (RARg), RARG (gene 5916); test: ATG_RARg_TRANS: Attagene TRANS-FACTORIAL HepG2 Assay for human Retinoic Acid Receptor gamma (RARg) (AID 2283009)
Records with an inconclusive call do not appear. Calls of active or inactive are those of the source. The calls were made as follows: active = hit-call score of the fitted dose curve at least 0.9, where 1 is the maximum; inconclusive = response in the unintended direction; inactive = score below 0.9.
Tick one outcome: active, inactive

Some entries whose results are on file:
[Q] Which outcome did this test record for the compound CCCCCC1CCCC(=O)O1 (stereo not drawn) ?
[A] inactive

[Q] Which outcome did this test record for the compound `CN1CCCC1` ?
[A] inactive

[Q] Which outcome did this test record for the compound O=C(C1CCCCC1)N1CC(=O)N2CCc3ccccc3C2C1 (stereo not drawn) ?
[A] inactive

[Q] Which outcome did this test record for the compound `COC(=O)CCSCCC(=O)OC` ?
[A] inactive

[Q] Which outcome did this test record for the compound `O=[N+]([O-])c1ccccc1C(F)(F)F` ?
[A] inactive

More entries:
[Q] Which outcome did this test record for the compound O=C1NC(=O)C2CC=CCC12 (stereo not drawn) ?
[A] inactive

[Q] Which outcome did this test record for the compound `CC(C)CC(=O)O` ?
[A] inactive

[Q] Which outcome did this test record for the compound CCCCCCC(O)CCCCCCCCCCC(=O)OC (stereo not drawn) ?
[A] inactive

----------
experiment: CCTE_Mundy_HCI_Cortical_NOG_BPCount: CCTE's Neurite Outgrowth Assay in rat cortical cells for Branch Point Count, Mundy Lab (AID 2284237);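 as to AC50: branch points counted about two days after chemical exposure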
Calls of active or inactive are those of the source. How the source made its calls: active means hit-call score of the fitted dose curve at least 0.9, where 1 is the maximum; inactive means score below 0.9.
measuredEndpoint: AC50

Recorded results for 4 compounds are shown here.
Briefly, AC50 measured for `NC(N)=Nc1nc(CSCCC(N)=NS(N)(=O)=O)cs1` : inactive

Briefly, AC50 measured for CN(C)CCC(c1ccc(Cl)cc1)c1ccccn1 (stereo not given) : inactive

Briefly, AC50 measured for `Cc1c(O)cccc1C(=O)N[C@@H](CSc1ccccc1)[C@H](O)CN1C[C@H]2CCCC[C@H]2C[C@H]1C(=O)NC(C)(C)C` : 15.4 µM (active)

Briefly, AC50 measured for `C[C@H](CS)C(=O)N1CCC[C@H]1C(=O)O` : inactive

Next:
Briefly, AC50 measured for `[Cl-].[Cl-].[NH2-].[NH2-].[Pt+4]` : inactive

----------
test: TOX21_p53_BLA_p4_viability: Viability Assessment in the Tox21 HCT-116 p53 Agonism Beta-lactamase Assay, Phase 4 (AID 2283597);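 also: hits lower the luminescence signal meaning cytotoxicity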
Results filed as inconclusive are left out. Calls of active or inactive are those of the source. Rule for the calls: active = hit-call score of the fitted dose curve at least 0.9, where 1 is the maximum; inconclusive = response in the unintended direction; inactive = score below 0.9.
Tick one outcome: active, inactive

Some entries whose results are on file:
[Q] Which outcome did this test record for the compound `C=CCn1c(=O)n(CC=C)c(=O)n(CC=C)c1=O` ?
[A] inactive

[Q] Which outcome did this test record for the compound `CCN(CC)C(=O)N1CCN(C)CC1` ?
[A] inactive

More entries:
[Q] Which outcome did this test record for the compound `C1COC(NC(C2CC2)C2CC2)=N1` ?
[A] inactive

[Q] Which outcome did this test record for the compound `CC=C(C)C#N` ?
[A] inactive

----------
Molecular target: Cellular tumor antigen p53 (Homo sapiens) (UniProt P04637)
Sequence (P04637 whole entry, looked up): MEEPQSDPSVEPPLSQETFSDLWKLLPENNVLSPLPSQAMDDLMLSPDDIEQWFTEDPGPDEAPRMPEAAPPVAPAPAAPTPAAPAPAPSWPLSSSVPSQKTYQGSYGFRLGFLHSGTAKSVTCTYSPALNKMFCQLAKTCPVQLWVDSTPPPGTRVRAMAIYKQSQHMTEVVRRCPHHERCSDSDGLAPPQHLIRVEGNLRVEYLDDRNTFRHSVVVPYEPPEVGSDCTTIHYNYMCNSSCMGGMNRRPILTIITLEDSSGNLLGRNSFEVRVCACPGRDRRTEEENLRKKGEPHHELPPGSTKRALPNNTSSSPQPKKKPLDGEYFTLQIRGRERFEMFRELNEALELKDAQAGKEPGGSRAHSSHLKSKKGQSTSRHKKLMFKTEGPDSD
Assay: TOX21_p53_BLA_p3_ratio: Tox21 HCT-116 p53 Agonism Beta-lactamase Assay, Ratio, Phase 3 (AID 2283596)
Procedure: TOX21_p53_BLA_p3 is a cell-based, single-readout assay that uses HCT116, a human intestinal cell line, […] in a 1536-well plate.TOX21_p53_BLA_p3_ratio is an assay readout measuring reporter gene via receptor activity and designed using inducible reporter (beta lactamase induction) detected with GAL4 b-lactamase reporter gene. […] This assay endpoint, TOX21_p53_BLA_p3_ratio, was analyzed in the positive analysis fitting direction relative to DMSO as the negative control and baseline of activity. […]
Inconclusive results are not listed. Active and inactive are the calls of the source. How the source made its calls: active means hit-call score of the fitted dose curve at least 0.9, where 1 is the maximum; inconclusive means response in the unintended direction; inactive means score below 0.9.
measuredEndpoint: AC50

Recorded results for 5 compounds are shown here.
The reported AC50 value, Cellular tumor antigen p53 (Homo sapiens) (UniProt P04637), for `O=C(NCN1CCOCC1)c1cnccn1` reads inactive

The reported AC50 value, Cellular tumor antigen p53 (Homo sapiens) (UniProt P04637), for CCN(CC)CCOc1ccc(C(O)(Cc2ccc(Cl)cc2)c2ccc(C)cc2)cc1 (configuration not stated) reads inactive

The reported AC50 value, Cellular tumor antigen p53 (Homo sapiens) (UniProt P04637), for `CN=C(N)NCCC[C@H](N)C(=O)O` reads inactive

The reported AC50 value, Cellular tumor antigen p53 (Homo sapiens) (UniProt P04637), for `CN(CCCN1c2ccccc2CCc2ccccc21)CC(=O)c1ccc(Cl)cc1` reads inactive

The reported AC50 value, Cellular tumor antigen p53 (Homo sapiens) (UniProt P04637), for `O=C(Nc1ccc(O)cc1)c1ccccc1O` reads inactive

More entries:
The reported AC50 value, Cellular tumor antigen p53 (Homo sapiens) (UniProt P04637), for OC(CCN1CCCC1)(c1ccccc1)C1CCCCC1 (configuration not stated) reads inactive

The reported AC50 value, Cellular tumor antigen p53 (Homo sapiens) (UniProt P04637), for `O=C(NCCO[N+](=O)[O-])c1cccnc1` reads inactive

The reported AC50 value, Cellular tumor antigen p53 (Homo sapiens) (UniProt P04637), for `COc1cc2c(cc1OC)CC(=O)N(CCCN(C)C[C@H]1Cc3cc(OC)c(OC)cc31)CC2` reads inactive

The reported AC50 value, Cellular tumor antigen p53 (Homo sapiens) (UniProt P04637), for `O=C(O)Cc1nn(Cc2ccc(Br)cc2F)c(=O)c2ccccc12` reads inactive

The reported AC50 value, Cellular tumor antigen p53 (Homo sapiens) (UniProt P04637), for `CCOC(=O)c1cccc(N)c1` reads inactive

The reported AC50 value, Cellular tumor antigen p53 (Homo sapiens) (UniProt P04637), for `Cc1cc2c(cc1S(N)(=O)=O)S(=O)(=O)CCC2` reads inactive

----------
target: Cellular tumor antigen p53 (Homo sapiens); assay: TOX21_p53_BLA_p2_ratio: Tox21 HCT-116 p53 Agonism Beta-lactamase Assay, Ratio, Phase 2 (AID 2283592)
Inconclusive results are not listed. Activity calls are given as the source filed them. Rule for the calls: active = hit-call score of the fitted dose curve at least 0.9, where 1 is the maximum; inconclusive = response in the unintended direction; inactive = score below 0.9.
Tick one outcome: active, inactive

[Q] Which outcome did this test record for the compound `CN(C)CCN(Cc1cccs1)c1ccccn1` ?
[A] inactive

More entries:
[Q] Which outcome did this test record for the compound `Oc1cc(O)c2c(c1)O[C@H](c1ccc(O)c(O)c1)[C@H](O)C2` ?
[A] inactive

[Q] Which outcome did this test record for the compound `Cc1cc(O)c(C(C)(C)C)cc1Sc1cc(C(C)(C)C)c(O)cc1C` ?
[A] active

[Q] Which outcome did this test record for the compound CC(C(O)c1ccccc1)N(C)CCOC(c1ccccc1)c1ccccc1 (stereo unspecified) ?
[A] inactive

[Q] Which outcome did this test record for the compound COc1ccc(C(=O)Nc2ccccc2CCC2CCCCN2C)cc1 (stereo unspecified) ?
[A] inactive

[Q] Which outcome did this test record for the compound `NCCc1ccc(O)c(O)c1` ?
[A] inactive

----------
biological target: Nuclear receptor subfamily 1 group I member 2 (Homo sapiens); assay: ATG_PXR_TRANS: Attagene TRANS-FACTORIAL HepG2 Assay for human Pregnane X Receptor (PXR) (AID 2283008)
Records with an inconclusive call do not appear. The source made the active and inactive calls. Rule for the calls: active = hit-call score of the fitted dose curve at least 0.9, where 1 is the maximum; inconclusive = response in the unintended direction; inactive = score below 0.9.
measuredEndpoint: AC50

Recorded results for 5 compounds are shown here.
Briefly, AC50 measured for `CN(C)Cc1cc(C(C)(C)C)c(O)c(C(C)(C)C)c1` : inactive

Briefly, AC50 measured for O=C(CC(C(=O)OC1CCCCC1)S(=O)(=O)O)OC1CCCCC1 (stereo unspecified) : inactive

Briefly, AC50 measured for `CN(C)CCCN1c2ccccc2CCc2ccc(Cl)cc21` : inactive

Briefly, AC50 measured for `O=C1CCCCCCCCCCCCCC1` : 26.6 µM (active)

Briefly, AC50 measured for CCCCC(CC)COC(=O)CS (stereo unspecified) : inactive

More entries:
Briefly, AC50 measured for COc1ccccc1OCC(O)CO (stereo unspecified) : inactive

Briefly, AC50 measured for `Oc1cccc2ccccc12` : inactive

Briefly, AC50 measured for `CC(C)CC(=O)CC(C)C` : inactive

Briefly, AC50 measured for `Cc1ccnc(N)c1` : inactive

Briefly, AC50 measured for `CCCCn1cc[n+](C)c1` : inactive

Briefly, AC50 measured for `O=C1NC(=O)[C@@H]2CC=CC[C@H]12` : inactive

Briefly, AC50 measured for `CC/C=C\CC1=C(C)CCC1=O` : inactive

Briefly, AC50 measured for `O=C(C(=O)c1ccccc1)c1ccccc1` : 11.3 µM (active)

Briefly, AC50 measured for `Cc1cccnc1` : inactive

Briefly, AC50 measured for `CCCCCC[C@@H](O)C/C=C\CCCCCCCC(=O)O` : inactive

Briefly, AC50 measured for c1cc(N(CC2CO2)CC2CO2)ccc1Cc1ccc(N(CC2CO2)CC2CO2)cc1 (stereo unspecified) : inactive

Briefly, AC50 measured for `CN(C)c1ccc(C(c2ccccc2)c2ccc(N(C)C)cc2)cc1` : 2.06 µM (active)

Briefly, AC50 measured for `Oc1ccc(Oc2ccccc2)cc1` : inactive

Briefly, AC50 measured for `C=C1CC[C@H]2C[C@@H]1C2(C)C` : 10.4 µM (active)

Briefly, AC50 measured for `COC(=O)CCSCCC(=O)OC` : inactive

Briefly, AC50 measured for `Cc1cc(-n2nc3ccc(Cl)cc3n2)c(O)c(C(C)(C)C)c1` : inactive

Briefly, AC50 measured for `CC/C=C\CC/C=C/C(OCC)OCC` : inactive

Briefly, AC50 measured for CCCCCC1CCCC(=O)O1 (stereo unspecified) : inactive

Briefly, AC50 measured for `CCCCCCCCCCCCCCCCCC[N+](C)(C)C` : 25 µM (active)

Briefly, AC50 measured for `NC(N)=Nc1nc(CSCCC(N)=NS(N)(=O)=O)cs1` : inactive

Briefly, AC50 measured for `CCCOCCC` : inactive

Briefly, AC50 measured for `CC(C)=CCOC(=O)c1ccccc1` : inactive
